Source of measurements: PubChem BioAssay AID1220

biological target: Mannose-6-phosphate isomerase (Homo sapiens) (UniProt P34949); assay: MPI inhibition at elevated mannose 6-phosphate – biochemical, fluorescence intensity, high mannose 6-phosphate, primary screen (AID 1220); details: recombinant PMI enzyme, coupled fluorescence intensity; at 20 µM; stronger effect = higher value
Sequence (P34949 whole entry, looked up): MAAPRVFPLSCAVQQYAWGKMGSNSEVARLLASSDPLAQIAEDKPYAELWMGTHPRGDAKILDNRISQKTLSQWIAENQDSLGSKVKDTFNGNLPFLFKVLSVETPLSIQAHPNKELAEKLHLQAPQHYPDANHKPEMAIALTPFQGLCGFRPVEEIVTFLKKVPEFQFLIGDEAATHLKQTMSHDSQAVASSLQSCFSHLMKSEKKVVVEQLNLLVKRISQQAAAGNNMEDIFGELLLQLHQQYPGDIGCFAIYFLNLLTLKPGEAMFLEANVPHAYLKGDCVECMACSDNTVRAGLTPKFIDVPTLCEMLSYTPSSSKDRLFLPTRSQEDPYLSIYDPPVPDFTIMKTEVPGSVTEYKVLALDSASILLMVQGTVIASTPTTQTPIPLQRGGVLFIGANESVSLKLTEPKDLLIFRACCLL
In all, about 190,000 compounds went through this assay and about 1,300 (0.68%) were called active. The sample holds actives, similar compounds and a random draw of the others, so the mix is not that of the screen.
Please go through the items and note down their inhibition.
Entry rule: numbers only, all in %.

// sample O=C(O)c1ccc(NC2=C/C(=N/S(=O)(=O)c3ccccc3)c3ccccc3C2=O)cc1 , its inhibition was -34.1

// sample O=C1c2ccccc2C(=O)N1CCSc1ncn[nH]1 , its inhibition was -12

// sample O=c1[nH]c(Cc2ccccn2)nc2scc(-c3ccccc3Cl)c12 , its inhibition was -108

// sample CCOC(=O)c1ccc(NC2OC(=O)c3ccccc32)cc1 (stereo not given) , its inhibition was -0.5

// sample CCC(=O)Nc1nc2nc(-c3ccccc3)cc(-c3ccccc3)n2n1 , its inhibition was 0.3

// sample CCCS(=O)(=O)c1c(S(=O)(=O)CCC)c2ccc(C(N)=O)cn2c1C(=O)c1ccc(OC)cc1 , its inhibition was 14

// sample CC(C)c1ccc(N2C(=O)CC(Sc3ncn[nH]3)C2=O)cc1 (stereo not given) , its inhibition was 22.4

// sample CCn1c(=O)cc(SCC(=O)N2CCN(C)CC2)c2ccccc21 , its inhibition was -10.8

// sample O=C(COc1ccccc1)NCCSCc1ccco1 , its inhibition was 5.1

// sample COCCN(CCOC)c1nc(N)c2c(N)nc3c(c2c1C#N)CC(=O)N3Cc1ccc(Cl)cc1 , its inhibition was 25.1

// sample CC(C)C(OC(=O)c1cccs1)C(=O)NCc1ccco1 (stereo not given) , its inhibition was 1.8

// sample c1csc(C2Nc3cccc4cccc(c34)N2)c1 , its inhibition was 11.7

// sample O=C(O)CCc1ccc(-c2cccs2)n1CCc1ccccc1 , its inhibition was 3.8

// sample Cc1cc(C(=O)Nc2ccccc2C#N)n(-c2ccccc2)n1 , its inhibition was 1.2

// sample COc1ccc2nc3ccccc3nc2c1NC(=O)c1ccccc1Cl , its inhibition was 51.5

// sample CCCCNC(=O)CSc1nc2ccccc2c(=O)n1C1CCCC1 , its inhibition was 0.1

// sample COc1cc2c(cc1/C=C/C(=O)O)OC(C)C2 (stereo not given) , its inhibition was 13.7

// sample O=C1CN(C(=O)COC(=O)c2cccc(OCc3ccccc3)c2)c2ccccc2N1 , its inhibition was 20.2

// sample COc1cccc(CN2CCN(Cc3[nH]c4ccccc4c3C)CC2CCO)c1 (stereo not given) , its inhibition was -0.2

// sample CN1CN(C)c2cccc3cccc1c23 , its inhibition was 48.7

* * *

Please go through the items and note down their inhibition.
target: Mannose-6-phosphate isomerase (Homo sapiens) (UniProt P34949); experiment: MPI inhibition at elevated mannose 6-phosphate – biochemical, fluorescence intensity, high mannose 6-phosphate, primary screen (AID 1220); conditions: recombinant PMI enzyme, coupled fluorescence intensity; at 20 µM; stronger effect = higher value
Out of some 190,000 compounds screened, about 1,300 (0.68%) were called active. The sample holds actives, similar compounds and a random draw of the others, so the mix is not that of the screen.
Entry rule: numbers only, all in %.

Tested on Mannose-6-phosphate isomerase (Homo sapiens) (UniProt P34949): Clc1ccccc1-c1ccc(/C=N/n2cnnc2)o1 . Observed inhibition: 6.7

Tested on Mannose-6-phosphate isomerase (Homo sapiens) (UniProt P34949): CCN(CC)c1ccc(NC2=C(Cl)C(=O)c3ccccc3C2=O)cc1 . Observed inhibition: 56.9

Tested on Mannose-6-phosphate isomerase (Homo sapiens) (UniProt P34949): CSc1ccccc1NC(=O)c1onc(C)c1Cl . Observed inhibition: -2.4

Tested on Mannose-6-phosphate isomerase (Homo sapiens) (UniProt P34949): CCN(CC)CCCNC1=C(Cl)C(=O)c2ccccc2C1=O . Observed inhibition: 58.1

Tested on Mannose-6-phosphate isomerase (Homo sapiens) (UniProt P34949): O=C1/C(=C\c2ccc(-c3ccccc3[N+](=O)[O-])o2)C(c2ccccc2)=NN1c1ccccc1 . Observed inhibition: -2.3

Tested on Mannose-6-phosphate isomerase (Homo sapiens) (UniProt P34949): Cc1ccccc1Nc1ncccc1C(=O)N1CCOCC1 . Observed inhibition: -9.3

Tested on Mannose-6-phosphate isomerase (Homo sapiens) (UniProt P34949): CCCc1nc2c(sc3nc4c(cc32)COC(C)(C)C4)c(=O)n1CCN(CC)CC . Observed inhibition: -0.7
